Please respond with reported IC50 for every item in the list.
Biological target: CDK2/CycE (Homo sapiens, UniProt P24941)
Experiment: CDK2/CycE kinase assay (TR-FRET, Method 2)
Quick note: number first, unit second.

### Prompt What does the record list as IC50 for COc1cc(F)ccc1-c1nc(Nc2cccc(CS(C)(=O)=O)c2)ncc1F ?
### Response 300 nM

### Prompt What do we get for CC(C)S(=O)(=O)Cc1cccc(Nc2ncc(F)c(-c3ccc(F)cc3OCc3ccccc3)n2)c1 ?
### Response 1600 nM

### Prompt What do we get for CS(=O)(=O)Cc1cccc(Nc2ncc(F)c(-c3cccc4c3OCCO4)n2)c1 ?
### Response 120 nM

### Prompt What do we get for COc1cc(F)ccc1-c1nc(Nc2cccc(CS(=O)(=O)C(C)C)c2)ncc1F ?
### Response 510 nM

### Prompt What do we get for CC(C)(C)S(=O)(=O)Cc1cccc(Nc2ncc(F)c(-c3ccc(F)cc3OCc3ccccc3)n2)c1 ?
### Response 3100 nM

### Prompt What do we get for CS(=O)(=O)Cc1cc(F)cc(Nc2ncc(F)c(-c3ccc(F)cc3OCc3ccccc3)n2)c1 ?
### Response 1100 nM

### Prompt What do we get for COc1cc(F)ccc1-c1nc(Nc2cccc(CS(=O)(=O)C3CC3)c2)ncc1F ?
### Response 780 nM

### Prompt What do we get for COCCS(=O)(=O)Cc1cccc(Nc2ncc(F)c(-c3ccc(F)cc3OCc3ccccc3)n2)c1 ?
### Response 1200 nM

====

System: A2780 cells
Experiment: Proliferation assay, A2780
Format: cell-based
Conditions: Homo sapiens, 96 h; A2780, 4 days, crystal violet; read-out: Inhibition of A2780 cell proliferation IC50
assay endpoint: IC50 (nM)
# value in nM; strip the unit string

### Prompt What does the record list as IC50 for COc1cc(F)ccc1-c1nc(Nc2cc(F)cc(CS(C)(=O)=O)c2)ncc1F [Example 12] ?
### Response 110

====

Test: Caco-2 permeation assay
Type: in vitro ADME
Conditions: human, pH 7.2, Caco-2, test compound 2 μM, basolateral to apical, read-out: Papp B-A (Mari)
Please respond with reported Papp B→A at 2 h, 2 μM for every item in the list.
# value in ×10⁻⁶ cm/s; strip the unit string

### Prompt What does the record list as Papp B→A at 2 h, 2 μM for COc1cc(F)ccc1-c1nc(Nc2cccc(CS(C)(=O)=O)c2)ncc1F [Example 1] ?
### Response 8.5

### Prompt What do we get for COc1cc(F)ccc1-c1nc(Nc2cc(F)cc(CS(C)(=O)=O)c2)ncc1F [Example 12] ?
### Response 3.1

====

Assay: Caco-2 permeation assay
Assay type: in vitro ADME
Conditions: human, pH 7.2, Caco-2, test compound 2 μM, apical to basolateral, read-out: Papp A-B (Mari)
assay endpoint: Papp A→B at 2 h, 2 μM (×10⁻⁶ cm/s)
# value in ×10⁻⁶ cm/s; strip the unit string

### Prompt What does the record list as Papp A→B at 2 h, 2 μM for COc1cc(F)ccc1-c1nc(Nc2cc(F)cc(CS(C)(=O)=O)c2)ncc1F [Example 12] ?
### Response 9.7

### Prompt What do we get for COc1cc(F)ccc1-c1nc(Nc2cccc(CS(C)(=O)=O)c2)ncc1F [Example 1] ?
### Response 20.6
